test system: HepG2 cells
# Cytotoxicity (percentages of optical density relative to that of the control) values compiled below
// unit must come after the numeric part

Reference set (3 entries):
Write down the reported Cytotoxicity (percentages of optical density relative to that of the control) of Cc1nn([C@H](C)[C@](O)(Cn2cncn2)c2ccc(F)cc2F)c2cccc(Cl)c12 , test system: HepG2 cells.
1.6%

Write down the reported Cytotoxicity (percentages of optical density relative to that of the control) of Cc1c2c(Cl)cccc2nn1[C@H](C)[C@](O)(Cn1cncn1)c1ccc(F)cc1F , test system: HepG2 cells.
2.4%

Write down the reported Cytotoxicity (percentages of optical density relative to that of the control) of C[C@@H](n1nc(Cl)c2ccccc21)[C@](O)(Cn1cncn1)c1ccc(F)cc1F , test system: HepG2 cells.
5.6%

Field: next compound
Write down the reported Cytotoxicity (percentages of optical density relative to that of the control) of C[C@@H](n1ncc2cc(NCc3cccc(Cl)c3)ccc21)[C@](O)(Cn1cncn1)c1ccc(F)cc1F , test system: HepG2 cells.
5.2%

* * *

Consider molecules characterized by their MIC90 with Cryptococcus neoformans ATCC 4065.
// unit must come after the numeric part

Reference set (4 entries):
// MIC90 lookup, key: C[C@@H](N1NCc2ccccc21)[C@](O)(Cn1cncn1)c1ccc(F)cc1F
0.063 µg/mL

// MIC90 lookup, key: C[C@@H](N1Cc2cc(NCc3ccc(Cl)cc3)ccc2N1)[C@](O)(Cn1cncn1)c1ccc(F)cc1F
0.125 µg/mL

// MIC90 lookup, key: Cc1nn([C@H](C)[C@](O)(Cn2cncn2)c2ccc(F)cc2F)c2ccc([N+](=O)[O-])cc12
0.5 µg/mL

// MIC90 lookup, key: OC(Cn1cncn1)(Cn1cncn1)c1ccc(F)cc1F [Fluconazole, fluconazole, reference compound]
8 µg/mL

New cases:
// MIC90 lookup, key: C[C@@H](n1ncc2cc([N+](=O)[O-])ccc21)[C@](O)(Cn1cncn1)c1ccc(F)cc1F
0.125 µg/mL

* * *

Consider compounds characterized by their MIC90 with Aspergillus fumigatus ATCC MYA-1163.
Output spec: scalar in µg/mL, unitless text.

Reference set (3 entries):
// MIC90 lookup, key: C[C@@H](N1Cc2cc(NCc3ccc(Cl)cc3)ccc2N1)[C@](O)(Cn1cncn1)c1ccc(F)cc1F
0.5

// MIC90 lookup, key: C[C@@H](N1NCc2ccccc21)[C@](O)(Cn1cncn1)c1ccc(F)cc1F
4

// MIC90 lookup, key: C[C@@H](n1ncc2cc([N+](=O)[O-])ccc21)[C@](O)(Cn1cncn1)c1ccc(F)cc1F
2

Field: next compound
// MIC90 lookup, key: Cc1nn([C@H](C)[C@](O)(Cn2cncn2)c2ccc(F)cc2F)c2ccc([N+](=O)[O-])cc12
8

* * *

test system: Candida albicans (ATCC 36082); experiment: In vivo assay for antifungal activity (survival of infected mice); conditions: ICR mice infected i.v. with Candida albicans ATCC 36082; 20 mg/kg orally once a day for seven days (day 0 to day 6); groups of 10
Parameter measured: % Survival on Day 21 (%)
Output spec: scalar in %, unitless text.

// % Survival on Day 21 lookup, key: C[C@@H](N1Cc2cc(NCc3ccc(Cl)cc3)ccc2N1)[C@](O)(Cn1cncn1)c1ccc(F)cc1F [Example 245]
40

// % Survival on Day 21 lookup, key: C[C@@H](n1cc2cc(Br)ccc2n1)[C@](O)(Cn1cncn1)c1ccc(F)cc1F [Example 60]
10

// % Survival on Day 21 lookup, key: C[C@@H](n1ncc2cc(N(C)C)ccc21)[C@](O)(Cn1cncn1)c1ccc(F)cc1F [Example 310]
40

// % Survival on Day 21 lookup, key: C[C@@H](N1NCc2ccccc21)[C@](O)(Cn1cncn1)c1ccc(F)cc1F [Example 50]
0

// % Survival on Day 21 lookup, key: OC(Cn1cncn1)(Cn1cncn1)c1ccc(F)cc1F [Fluconazole, fluconazole, reference compound]
20

New cases:
// % Survival on Day 21 lookup, key: C[C@@H](n1ncc2cc([N+](=O)[O-])ccc21)[C@](O)(Cn1cncn1)c1ccc(F)cc1F [Example 234]
40
